Experimental system: STK39 (human)
Measurement notes: radiometric filter-binding kinase assay, Kinase HotSpot
Assay conditions: compound 0.5 µM; ATP 10 µM
Quantity: residual activity (%)
One number for each entry, in %.

# example entries with known answers
> print(dat)
                                        mol  units  reading
1  Cn1c2ccccc2c2c3c(c4c5ccccc5n(CCC#N)c4c21)CNC3=O      %     96.7
2        CC(C)(C)c1cc(C=C(C#N)C#N)cc(Br)c1O      %     87.6
3  COc1cc2ncnc(Nc3ccc(OCc4ccccc4)cc3)c2cc1OC      %     95.8
4               O=C1c2ccccc2-c2nc3nnnn3nc21      %     89.2
5      CN(C)c1ccc(/C=C2\C(=O)Nc3ccccc32)cc1      %     96.6
6       Fc1ccc(-c2nc3n(c2-c2ccncc2)CCS3)cc1      %      103
7  COc1ccc(S(=O)(=O)N(CCO)c2ccccc2CN(C)C/C=C/c2ccc(Cl)cc2)cc1      %     92.8
8               c1ccc2c(-c3ccncc3)c[nH]c2c1      %     99.8

// switching to the query compound
Challenge: Give the reported residual activity for this compound. `O=C1NC(=O)c2c1c1c3ccccc3[nH]c1n1cncc21`
Response given: 104
